Listed next: entries and their corresponding IC50.
# Study System: CK2A1 (CK2α/β) (Homo sapiens)
# Construct: made in house
# Assay: CK2 kinase assay, CK2A1 (CK2α/β)
# Assay type: biochemical
# Assay Conditions: Table 2; comparison compounds of US 2008/0045536; read-out: CK2A1 IC50

// query Which IC50 value belongs to Cc1c(N[C@H]2CC[C@H](N)CC2)nn2c(C#N)cnc2c1Nc1ccccc1 [XXV(1), reference compound] ?
// result 2.69 µM

// query Which IC50 value belongs to CCOc1ccc(Nc2cc(N[C@H]3CC[C@H](N)CC3)nn3ccnc23)cc1 [I(1), reference compound] ?
// result > 50 µM

// query Which IC50 value belongs to Cc1ccc(Nc2cc(N[C@H]3CC[C@H](N)CC3)nn3ccnc23)nc1 [II(16), reference compound] ?
// result > 50 µM

Here is another compound to look at.
// query Which IC50 value belongs to N[C@H]1CC[C@H](Nc2cc(Nc3ccccc3)c3nccn3n2)CC1 [I(7), reference compound] ?
// result > 50 µM

----------
# Study System: CK2A1 (CK2α/β) (Homo sapiens, UniProt P68400)
# Construct: made in house
# Sequence (P68400 whole entry, species assumed): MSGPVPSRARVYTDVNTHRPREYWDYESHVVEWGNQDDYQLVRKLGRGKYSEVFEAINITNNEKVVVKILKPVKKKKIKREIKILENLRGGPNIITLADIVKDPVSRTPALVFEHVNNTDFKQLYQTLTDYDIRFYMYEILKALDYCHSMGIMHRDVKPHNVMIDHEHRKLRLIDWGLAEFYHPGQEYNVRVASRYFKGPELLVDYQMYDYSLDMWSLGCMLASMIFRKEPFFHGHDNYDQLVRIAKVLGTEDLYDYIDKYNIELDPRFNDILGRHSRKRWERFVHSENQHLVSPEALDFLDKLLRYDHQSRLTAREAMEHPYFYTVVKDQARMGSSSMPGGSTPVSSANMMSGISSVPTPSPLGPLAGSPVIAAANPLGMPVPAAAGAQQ
# Sequence (P67870 whole entry partner, species assumed): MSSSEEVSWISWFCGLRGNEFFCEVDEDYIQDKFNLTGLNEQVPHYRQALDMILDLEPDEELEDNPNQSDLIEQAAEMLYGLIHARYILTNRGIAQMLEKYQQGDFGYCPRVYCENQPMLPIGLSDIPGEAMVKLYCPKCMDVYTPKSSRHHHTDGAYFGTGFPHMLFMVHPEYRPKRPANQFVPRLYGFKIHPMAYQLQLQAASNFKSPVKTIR
# Assay: CK2 kinase assay, CK2A1 (CK2α/β)
# Assay type: biochemical
# Assay Conditions: Table 1; read-out: CK2A1 (CK2α/β) (IC50)
Please note: IC50 exactly at 300 nM is -1. Only values below 300 nM get 1.

// query A record lists COc1ccc(-n2cncn2)cc1Nc1cc(NC2CC2)c2ncc(C#N)n2n1 . Is its IC50 below 300 nM?
// result 1

// query A record lists COC(=O)Nc1cc(Nc2cc(NC3CC3)c3ncc(C#N)n3n2)ccc1C . Is its IC50 below 300 nM?
// result 1

// query A record lists N#Cc1cnc2c(NC3CC3)cc(Nc3cccc(-c4nnco4)c3)nn12 . Is its IC50 below 300 nM?
// result -1

// query A record lists CC(C)C(=O)Nc1cccc(Nc2cc(NC3CC3)c3ncc(C#N)n3n2)c1 . Is its IC50 below 300 nM?
// result -1

// query A record lists N#Cc1cnc2c(NC3CC3)cc(Nc3ccc(F)c(-n4cnnc4)c3)nn12 . Is its IC50 below 300 nM?
// result 1

// query A record lists N#Cc1cnc(Nc2cc(NC3CC3)c3ncc(C#N)n3n2)s1 . Is its IC50 below 300 nM?
// result -1

Others:
// query A record lists N#Cc1ccc(Nc2cc(NC3CC3)c3ncc(C#N)n3n2)cc1C(F)(F)F . Is its IC50 below 300 nM?
// result 1

----------
# Study System: CK2A2 (CK2α′/β) (Homo sapiens, UniProt P19784)
# Construct: made in house
# Sequence (P19784 whole entry, species assumed): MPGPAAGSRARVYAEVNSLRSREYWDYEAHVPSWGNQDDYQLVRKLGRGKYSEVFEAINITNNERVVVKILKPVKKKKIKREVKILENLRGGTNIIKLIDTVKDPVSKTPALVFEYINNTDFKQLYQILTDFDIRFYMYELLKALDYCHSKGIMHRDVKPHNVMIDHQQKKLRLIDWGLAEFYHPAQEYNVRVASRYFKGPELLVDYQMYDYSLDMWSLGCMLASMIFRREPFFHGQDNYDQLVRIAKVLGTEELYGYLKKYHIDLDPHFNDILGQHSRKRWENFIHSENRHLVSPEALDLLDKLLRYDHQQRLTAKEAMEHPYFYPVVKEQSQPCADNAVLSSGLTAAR
# Sequence (P67870 whole entry partner, species assumed): as the sequence (P67870 whole entry partner, species assumed) above
# Assay: CK2 kinase assay, CK2A2 (CK2α′/β)
# Type: biochemical
# Assay Conditions: Table 2; comparison compounds of US 2008/0045536; read-out: CK2A2 IC50
Outcome Measure: IC50 (µM)
A number alone suffices; assume µM.

// query Which IC50 value belongs to Cc1c(N[C@H]2CC[C@H](N)CC2)nn2c(C#N)cnc2c1Nc1ccccc1 [XXV(1), reference compound] ?
// result 8.09

Others:
// query Which IC50 value belongs to Cc1ccc(Nc2cc(N[C@H]3CC[C@H](N)CC3)nn3ccnc23)nc1 [II(16), reference compound] ?
// result 31.8

----------
# Study System: CK2A2 (CK2α′/β) (Homo sapiens)
# Construct: made in house
# Assay: CK2 kinase assay, CK2A2 (CK2α′/β)
# Type: biochemical
# Assay Conditions: Table 1; read-out: CK2A2 (CK2α′/β) (IC50)
# Protocol: The effectiveness of compounds of the present invention as inhibitors of protein kinases can be readily tested by assays known to those skilled in the art. […] Incorporation of radioactive phosphate into the peptide substrate was determined by liquid scintillation counting. […] The inhibitory activity of the instant compounds may also be measured by recombinant CK2 holoenzyme kinase assays. […] Compounds were dissolved at 10 mM in dimethylsulfoxide (DMSO) and evaluated at eleven concentrations. […]
pIC50: −log10 of the molar value.
Category key, based on recorded pIC50: A: < 7; B: ≥ 7 and < 8; C: ≥ 8

// query Hey, which category is Cc1cc(Cl)c(Nc2cc(Nc3ccccn3)c3ncc(C#N)n3n2)cc1C#N in, do you know?
// result C

// query Hey, which category is CC(C)C(=O)Nc1cccc(Nc2cc(NC3CC3)c3ncc(C#N)n3n2)c1 in, do you know?
// result A

// query Hey, which category is Cc1ccc(Nc2cc(Nc3ccccn3)c3ncc(C#N)n3n2)cc1C#N in, do you know?
// result C

// query Hey, which category is N#Cc1ccc(Cl)c(Nc2cc(NC3CC3)c3ncc(C#N)n3n2)c1 in, do you know?
// result C

// query Hey, which category is N#Cc1cnc2c(NC3CC3)cc(Nc3cccc(C(=O)O)c3)nn12 in, do you know?
// result B

Others:
// query Hey, which category is COc1ccc(Nc2cc(Nc3ccc(OC(F)(F)F)c(-n4cnnc4)c3)nn3c(C#N)cnc23)nc1 in, do you know?
// result B

// query Hey, which category is N#Cc1ccc(Nc2cc(NC3CC3)c3ncc(C#N)n3n2)cc1C(F)(F)F in, do you know?
// result B

----------
# Study System: CK2A1 (CK2α/β) (Homo sapiens, UniProt P68400)
# Construct: made in house
# Assay: CK2 kinase assay, CK2A1 (CK2α/β)
# Assay type: biochemical
# Assay Conditions: Table 1; read-out: CK2A1 (CK2α/β) (IC50)
Outcome Measure: IC50 (nM)
A number alone suffices; assume nM.

// query Which IC50 value belongs to N#Cc1ccc(Cl)c(Nc2cc(NC3CC3)c3ncc(C#N)n3n2)c1 ?
// result 7.4

// query Which IC50 value belongs to N#Cc1ccnc(Nc2cc(NC3CC3)c3ncc(C#N)n3n2)c1 ?
// result 11.9

// query Which IC50 value belongs to Cn1cnnc1-c1cccc(Nc2cc(NC3CC3)c3ncc(C#N)n3n2)c1 ?
// result 417

// query Which IC50 value belongs to N#Cc1cnc2c(NC3CC3)cc(Nc3cccc(N4CCCC4=O)c3)nn12 ?
// result 4600

// query Which IC50 value belongs to N#Cc1cnc2c(NC3CC3)cc(Nc3cccc(-c4cccnc4)c3)nn12 ?
// result 596

// query Which IC50 value belongs to COc1ccc(C#N)cc1Nc1cc(N)c2ncc(C#N)n2n1 ?
// result 9

Others:
// query Which IC50 value belongs to N#Cc1cnc2c(NC3CC3)cc(Nc3ccc(Cl)c(-c4ncco4)c3)nn12 ?
// result 512

// query Which IC50 value belongs to CC(=O)N1CCc2ccc(Nc3cc(NC4CC4)c4ncc(C#N)n4n3)cc21 ?
// result 12

// query Which IC50 value belongs to N#Cc1cnc2c(NC3CC3)cc(Nc3cccc(C(N)=O)c3)nn12 ?
// result 261

// query Which IC50 value belongs to COc1ccc(Nc2cc(NC3CC3)c3ncc(C#N)n3n2)cc1OC ?
// result 155

// query Which IC50 value belongs to Cc1cc(Cl)c(Nc2cc(NC3CC3)c3ncc(C#N)n3n2)cc1C#N ?
// result 8.2

// query Which IC50 value belongs to CCN(CC)c1ccc(Nc2cc(NC3CC3)c3ncc(C#N)n3n2)cc1 ?
// result 102

// query Which IC50 value belongs to CCc1ccc(Nc2cc(NC3CC3)c3ncc(C#N)n3n2)cc1NS(C)(=O)=O ?
// result 25

// query Which IC50 value belongs to COC(=O)Nc1cc(Nc2cc(NC3CC3)c3ncc(C#N)n3n2)ccc1C(=O)N1CCN(C)CC1 ?
// result 712

// query Which IC50 value belongs to CC(=O)Nc1cc(Nc2cc(NC3CC3)c3ncc(C#N)n3n2)ccc1C ?
// result 6

// query Which IC50 value belongs to Cc1ccc(Nc2cc(Nc3ccccn3)c3ncc(C#N)n3n2)cc1C#N ?
// result 12.2

// query Which IC50 value belongs to N#Cc1cnc2c(NC3CC3)cc(Nc3cc(-n4cncn4)ccc3OC(F)(F)F)nn12 ?
// result 103

----------
# Study System: CK2A2 (CK2α′/β) (Homo sapiens)
# Construct: made in house
# Assay: CK2 kinase assay, CK2A2 (CK2α′/β)
# Format: biochemical
# Assay Conditions: Table 1; read-out: CK2A2 (CK2α′/β) (IC50)
Please note: IC50 exactly at 8 nM is No. Only values below 8 nM get Yes.

// query A record lists N#Cc1cnc2c(NC3CC3)cc(Nc3ccc(Cl)c(-c4ncco4)c3)nn12 . Is its IC50 below 8 nM?
// result No

// query A record lists N#Cc1cnc2c(NC3CC3)cc(Nc3cccc(-c4nnco4)c3)nn12 . Is its IC50 below 8 nM?
// result No

// query A record lists Cn1cnnc1-c1cccc(Nc2cc(NC3CC3)c3ncc(C#N)n3n2)c1 . Is its IC50 below 8 nM?
// result No

// query A record lists N#Cc1cnc2c(NC3CC3)cc(Nc3cccc(-c4cccnc4)c3)nn12 . Is its IC50 below 8 nM?
// result No

// query A record lists N#Cc1cnc2c(NC3CC3)cc(Nc3cc(-n4cncn4)ccc3OC(F)(F)F)nn12 . Is its IC50 below 8 nM?
// result No

// query A record lists COc1ccc(Nc2cc(NC3CC3)c3ncc(C#N)n3n2)cc1OC . Is its IC50 below 8 nM?
// result No

// query A record lists CCN(CC)c1ccc(Nc2cc(NC3CC3)c3ncc(C#N)n3n2)cc1 . Is its IC50 below 8 nM?
// result No

// query A record lists Cc1cc(O)nc2cc(Nc3cc(NC4CC4)c4ncc(C#N)n4n3)ccc12 . Is its IC50 below 8 nM?
// result Yes

// query A record lists N#Cc1cnc2c(NC3CC3)cc(Nc3cccc(N4CCCC4=O)c3)nn12 . Is its IC50 below 8 nM?
// result No

// query A record lists CC(=O)N1CCc2ccc(Nc3cc(NC4CC4)c4ncc(C#N)n4n3)cc21 . Is its IC50 below 8 nM?
// result Yes
